- system under test: recombinant human cIAP2-BIR3 protein (Homo sapiens, UniProt Q13489)
- Construct: recombinant human cIAP2-BIR3 protein; purchased Reaction biology APT-11-372
- Sequence (Q13489 238-349 limits assumed): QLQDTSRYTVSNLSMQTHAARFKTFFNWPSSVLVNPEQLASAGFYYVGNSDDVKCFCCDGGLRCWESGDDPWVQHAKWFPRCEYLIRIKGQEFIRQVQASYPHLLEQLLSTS
- assay explanation: Recombinant human c-IAP2-BIR3 biochemical assay (HTRF, peptide displacement)
- cond: 3.7 nM cIAP2-BIR3, 3.7 nM AbuRPF-K(5-Fam)-NH2 peptide, read-out: Protein binding IC50 (nM) c-IAP2
metric: IC50 (nM)

Cc1nc2c(cc1Cc1ccc(F)cc1)N(C(=O)CN1C[C@@H](C)NC[C@@H]1CN1CCOC[C@H]1C)CCO2 [Compound 5] = 1.1

A = C[C@@H]1CN(CC(=O)N2c3cc(Cc4ccc(F)cc4)c(C(=O)N4CCN(C)CC4)nc3OC[C@@H]2C)[C@@H](CN2[C@H](C)COC[C@H]2C)CN1 [Compound 104]
B = C[C@@H]1CN(CC(=O)N2c3cc(Cc4ccc(F)cc4)c(C(=O)N4CCC(F)(F)CC4)nc3OC[C@@H]2C)[C@@H](CN2[C@H](C)COC[C@H]2C)CN1 [Compound 103]
C = C[C@@H]1CN(CC(=O)N2c3cc(Cc4ccc(F)cc4)c(C(=O)NCC(F)(F)F)nc3OC[C@@H]2C)[C@@H](CN2[C@H](C)COC[C@H]2C)CN1 [Example 64]
D = C[C@@H]1CN(CC(=O)N2CCOc3nc(C(F)(F)F)c(Cc4ccc(F)cc4)cc32)[C@@H](CN2CCOC[C@H]2C)CN1 [Compound 7]
E = C[C@@H]1CN(CC(=O)N2c3cc(Cc4ccc(F)cc4)c(CO)nc3OC[C@@H]2C)[C@@H](CN2CCOC[C@@H]2C(F)(F)F)CN1 [Compound 91B]
Qu. Order these by IC50, descending, and give the full ranking. Kindly provide the labels arranged according to the requested ordering.
Ans. E, D, A, B, C
(E: 108 nM, D: 6.8 nM, A: 0.83 nM, B: 0.43 nM, C: 0.29 nM)

a = CCNc1nc2c(cc1Cc1ccc(F)cc1)N(C(=O)CN1C[C@@H](C)NC[C@@H]1CN1[C@H](C)COC[C@H]1C)[C@@H](C)CO2 [Compound 111]
b = C[C@@H]1CN(CC(=O)N2c3cc(Cc4ccc(F)cc4)c(C(=O)NC[C@@H]4CCOC4)nc3OC[C@@H]2C)[C@@H](CN2[C@H](C)COC[C@H]2C)CN1 [Compound 95]
c = CCOC[C@@H]1COCCN1C[C@H]1CN[C@H](C)CN1CC(=O)N1c2cc(Cc3ccc(F)cc3)c(CO)nc2OC[C@@H]1C [Compound 53]
Qu. Order these by IC50, descending, and give the full ranking. Kindly provide the labels arranged according to the requested ordering.
Ans. c, a, b

1 = C[C@@H]1CN(CC(=O)N2c3cc(Cc4ccc(F)cc4)c(CO)nc3OC[C@@H]2C)[C@@H](CN2CCOCC23CC3)CN1 [Compound 50]
2 = C[C@@H]1CN(CC(=O)N2c3cc(Cc4ccc(F)cc4)c(C(=O)NCC4CC4)nc3OC[C@@H]2C)[C@@H](CN2[C@H](C)COC[C@H]2C)CN1 [Example 70]
Qu. Exercise: compare 1 and 2 ; which one has the greater IC50? Choose, then provide that item's label.
Ans. 1
